Measured values drawn from the supplement of paper PMC10307832 for this set.

Entries and their relative viability values follow.
Tested on: NCI-H2087
Test: relative viability (nuclei count vs DMSO), 5 days (fraction); higher = more cells survive
Details: first compound 0.005 µM

Before answering, review these 2 worked examples.
>  <COMPOUND>
CC1(C)CCC(c2ccc(Cl)cc2)=C(CN2CCN(c3ccc(C(=O)NS(=O)(=O)c4ccc(N[C@H](CCN5CCOCC5)CSc5ccccc5)c(S(=O)(=O)C(F)(F)F)c4)cc3)CC2)C1 [Navitoclax] + Cc1cc(Nc2cc(N3CCN(C)CC3)nc(Sc3ccc(NC(=O)C4CC4)cc3)n2)n[nH]1 [Tozasertib] (partner 0.1 µM)

>  <TARGET DESC>
NCI-H2087

>  <relative viability>
0.245

$$$$
>  <COMPOUND>
CC1(C)CCC(c2ccc(Cl)cc2)=C(CN2CCN(c3ccc(C(=O)NS(=O)(=O)c4ccc(N[C@H](CCN5CCOCC5)CSc5ccccc5)c(S(=O)(=O)C(F)(F)F)c4)cc3)CC2)C1 [Navitoclax] + C[C@@H](Oc1cc(-c2cnn(C3CCNCC3)c2)cnc1N)c1c(Cl)ccc(F)c1Cl [Crizotinib] (partner 1 µM)

>  <TARGET DESC>
NCI-H2087

>  <relative viability>
0.911

$$$$

Now for a further compound.
q: Quick one: relative viability for CC1(C)CCC(c2ccc(Cl)cc2)=C(CN2CCN(c3ccc(C(=O)NS(=O)(=O)c4ccc(N[C@H](CCN5CCOCC5)CSc5ccccc5)c(S(=O)(=O)C(F)(F)F)c4)cc3)CC2)C1 [Navitoclax] + O=C(CCCCCCC(=O)Nc1ccccc1)NO [Vorinostat] (partner 1 µM) ?
a: 0.675

====

Tested on: NCI-H2170
Test: relative viability (nuclei count vs DMSO), 5 days (fraction); higher = more cells survive
Conditions: first compound 0.8 µM
EXPERIMENTAL ENDPOINT: relative viability
// return a plain number; no unit text

Known relative viability results, listed for orientation:
>  <MOLECULE>
Oc1nc(-c2ccc(C(F)(F)F)cc2)nc2c1CSCC2 [XAV939] + O=C(c1cc(Cc2n[nH]c(=O)c3ccccc23)ccc1F)N1CCN(C(=O)C2CC2)CC1 [Olaparib] (partner 8 µM)

>  <EXPERIMENTAL ENDPOINT>
relative viability

>  <EXPERIMENTAL RESULT>
0.5

$$$$
>  <MOLECULE>
Oc1nc(-c2ccc(C(F)(F)F)cc2)nc2c1CSCC2 [XAV939] + Cc1nc(Nc2ncc(C(=O)Nc3c(C)cccc3Cl)s2)cc(N2CCN(CCO)CC2)n1 [Dasatinib] (partner 0.075 µM)

>  <EXPERIMENTAL ENDPOINT>
relative viability

>  <EXPERIMENTAL RESULT>
0.46

$$$$

q: I have this molecule here, C=C1C(=O)O[C@@H](CCCCCCCC)[C@@H]1C(=O)O [C-75] + O=C(c1cc(Cc2n[nH]c(=O)c3ccccc23)ccc1F)N1CCN(C(=O)C2CC2)CC1 [Olaparib] (partner 8 µM) , and I need its recorded relative viability.
a: 0.541

====

Reported relative viability values are given for each entry in this list.
Test system: NCI-H2009
Test: relative viability (nuclei count vs DMSO), 5 days (fraction); higher = more cells survive
Settings: first compound 0.253 µM
Number, no unit, nothing else.

>  <COMPOUND>
Oc1nc(-c2ccc(C(F)(F)F)cc2)nc2c1CSCC2 [XAV939] + CC(C)C[C@H](NC(=O)[C@H](Cc1ccccc1)NC(=O)c1cnccn1)B(O)O [Bortezomib] (partner 0.002 µM)

>  <TARGET DESC>
NCI-H2009

>  <relative viability>
0.901

$$$$
>  <COMPOUND>
C=C1C(=O)O[C@@H](CCCCCCCC)[C@@H]1C(=O)O [C-75] + O=C(CCCCCCC(=O)Nc1ccccc1)NO [Vorinostat] (partner 1 µM)

>  <TARGET DESC>
NCI-H2009

>  <relative viability>
0.668

$$$$
>  <COMPOUND>
Oc1nc(-c2ccc(C(F)(F)F)cc2)nc2c1CSCC2 [XAV939] + O=C(CCCCCCC(=O)Nc1ccccc1)NO [Vorinostat] (partner 1 µM)

>  <TARGET DESC>
NCI-H2009

>  <relative viability>
0.709

$$$$

q: # relative viability lookup, item Oc1nc(-c2ccc(C(F)(F)F)cc2)nc2c1CSCC2 [XAV939] + N=C(N)NC(=N)NCCc1ccccc1 [Phenformin] (partner 250 µM)
a: 0.484

q: # get_value(readout='relative viability', item= C=C1C(=O)O[C@@H](CCCCCCCC)[C@@H]1C(=O)O [C-75] + C[C@]1(O)C[C@@H](c2nc(-c3ccc4ccc(-c5ccccc5)nc4c3)c3c(N)nccn32)C1 [Linsitinib] (partner 1 µM) )
a: 1.09

====

Test system: EMC-BAC-2
Experiment: relative viability (nuclei count vs DMSO), 5 days (fraction); higher = more cells survive
Conditions: first compound 1 µM
Field 'label' (enum: 1.0 / 0.0). Set to 1.0 when relative viability is strictly under 0.7; else 0.0.

>  <MOLECULE>
NC(=O)Nc1cc(-c2cccc(F)c2)sc1C(=O)N[C@H]1CCCNC1 [AZD7762] + Cc1nc(NC(=O)N2CCC[C@H]2C(N)=O)sc1-c1ccnc(C(C)(C)C(F)(F)F)c1 [Alpelisib] (partner 2 µM)

>  <CAT>
0.0

$$$$
>  <MOLECULE>
NC(=O)Nc1cc(-c2cccc(F)c2)sc1C(=O)N[C@H]1CCCNC1 [AZD7762] + COc1cccc2cc(-c3nc([C@H]4CC[C@H](C(=O)O)CC4)n4ncnc(N)c34)[nH]c12 [OSI-027] (partner 0.5 µM)

>  <CAT>
1.0

$$$$
>  <MOLECULE>
NC(=O)Nc1cc(-c2cccc(F)c2)sc1C(=O)N[C@H]1CCCNC1 [AZD7762] + C[C@]1(O)C[C@@H](c2nc(-c3ccc4ccc(-c5ccccc5)nc4c3)c3c(N)nccn32)C1 [Linsitinib] (partner 1 µM)

>  <CAT>
0.0

$$$$

Next molecule, please.
q: Dear reviewer, please state whether NC(=O)Nc1cc(-c2cccc(F)c2)sc1C(=O)N[C@H]1CCCNC1 [AZD7762] + CC1(C)CCC(c2ccc(Cl)cc2)=C(CN2CCN(c3ccc(C(=O)NS(=O)(=O)c4ccc(N[C@H](CCN5CCOCC5)CSc5ccccc5)c(S(=O)(=O)C(F)(F)F)c4)cc3)CC2)C1 [Navitoclax] (partner 0.5 µM) has relative viability strictly beneath 0.7.
a: 0.0

====

System: 201T
Assay: relative viability (nuclei count vs DMSO), 5 days (fraction); higher = more cells survive
Conditions: first compound 0.253 µM
EXPERIMENTAL ENDPOINT: relative viability
Could you respond with only the numeric value?

Answered cases to consult:
>  <COMPOUND>
C=C1C(=O)O[C@@H](CCCCCCCC)[C@@H]1C(=O)O [C-75] + N=C(N)NC(=N)NCCc1ccccc1 [Phenformin] (partner 250 µM)

>  <EXPERIMENTAL ENDPOINT>
relative viability

>  <EXPERIMENTAL RESULT>
0.484

$$$$
>  <COMPOUND>
Oc1nc(-c2ccc(C(F)(F)F)cc2)nc2c1CSCC2 [XAV939] + COc1cc2c(Oc3ccc(NC(=O)C4(C(=O)Nc5ccc(F)cc5)CC4)cc3F)ccnc2cc1OCCCN1CCOCC1 [Foretinib] (partner 0.25 µM)

>  <EXPERIMENTAL ENDPOINT>
relative viability

>  <EXPERIMENTAL RESULT>
0.705

$$$$
>  <COMPOUND>
C=C1C(=O)O[C@@H](CCCCCCCC)[C@@H]1C(=O)O [C-75] + Cc1cc(Nc2cc(N3CCN(C)CC3)nc(Sc3ccc(NC(=O)C4CC4)cc3)n2)n[nH]1 [Tozasertib] (partner 0.1 µM)

>  <EXPERIMENTAL ENDPOINT>
relative viability

>  <EXPERIMENTAL RESULT>
1.12

$$$$

q: For the compound shown here, C=C1C(=O)O[C@@H](CCCCCCCC)[C@@H]1C(=O)O [C-75] + Cc1nc(Nc2ncc(C(=O)Nc3c(C)cccc3Cl)s2)cc(N2CCN(CCO)CC2)n1 [Dasatinib] (partner 0.075 µM) , give the reported relative viability.
a: 0.707

q: Name the reported relative viability value associated with the compound Oc1nc(-c2ccc(C(F)(F)F)cc2)nc2c1CSCC2 [XAV939] + COc1cccc2cc(-c3nc([C@H]4CC[C@H](C(=O)O)CC4)n4ncnc(N)c34)[nH]c12 [OSI-027] (partner 0.5 µM)
a: 0.487

q: Which relative viability value is on record for Oc1nc(-c2ccc(C(F)(F)F)cc2)nc2c1CSCC2 [XAV939] + N=C(N)NC(=N)NCCc1ccccc1 [Phenformin] (partner 250 µM) ?
a: 0.421

====

Tested on: NCI-H661
Experiment: relative viability (nuclei count vs DMSO), 5 days (fraction); higher = more cells survive
Details: first compound 0.3162 µM
Binary call on relative viability with cut-off 0.5: strictly below means T, and equality or higher means F.

Past entries and their recorded results:
>  <COMPOUND>
NC(=O)Nc1cc(-c2cccc(F)c2)sc1C(=O)N[C@H]1CCCNC1 [AZD7762] + CS(=O)(=O)CCNCc1ccc(-c2ccc3ncnc(Nc4ccc(OCc5cccc(F)c5)c(Cl)c4)c3c2)o1 [Lapatinib] (partner 2 µM)

>  <CAT>
T

$$$$
>  <COMPOUND>
NC(=O)Nc1cc(-c2cccc(F)c2)sc1C(=O)N[C@H]1CCCNC1 [AZD7762] + CC(=O)Nc1cccc(-n2c(=O)n(C3CC3)c(=O)c3c(Nc4ccc(I)cc4F)n(C)c(=O)c(C)c32)c1 [Trametinib] (partner 0.02 µM)

>  <CAT>
F

$$$$

q: Record NC(=O)Nc1cc(-c2cccc(F)c2)sc1C(=O)N[C@H]1CCCNC1 [AZD7762] + COc1cc2c(Oc3ccc(NC(=O)C4(C(=O)Nc5ccc(F)cc5)CC4)cc3F)ccnc2cc1OCCCN1CCOCC1 [Foretinib] (partner 0.25 µM) : is its relative viability strictly below 0.5?
a: F

q: Lab note: confirm whether the reported relative viability for this compound is below 0.5, equality not counting. compound: NC(=O)Nc1cc(-c2cccc(F)c2)sc1C(=O)N[C@H]1CCCNC1 [AZD7762] + CS(=O)(=O)N1CCN(Cc2cc3nc(-c4cccc5[nH]ncc45)nc(N4CCOCC4)c3s2)CC1 [Pictilisib] (partner 1 µM)
a: T

q: Below 0.5 on relative viability? Entry NC(=O)Nc1cc(-c2cccc(F)c2)sc1C(=O)N[C@H]1CCCNC1 [AZD7762] + Cc1nc(Nc2ncc(C(=O)Nc3c(C)cccc3Cl)s2)cc(N2CCN(CCO)CC2)n1 [Dasatinib] (partner 0.075 µM)
a: T

q: Hi there! Is relative viability for NC(=O)Nc1cc(-c2cccc(F)c2)sc1C(=O)N[C@H]1CCCNC1 [AZD7762] + CCNC(=O)c1noc(-c2cc(C(C)C)c(O)cc2O)c1-c1ccc(CN2CCOCC2)cc1 [Luminespib] (partner 0.01 µM) below 0.5, do you know?
a: F
